Entries and their viability, T/C values follow.
tested on: A375 multi-cell spheroids with HUVEC/MSC, viability; experiment: Anticancer human tumor A375 cell line growth inhibition [GQUAD]; settings: second compound 3.16 µM; first compound 0.1 µM; stronger effect = lower value;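 note: spheroids exposed to compounds for seven days before readout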
Quick reminder: number only, in %, skip the unit.

# annotated cases, reported viability, T/C shown
COMPOUND: CC(C)n1c(=O)n(C)c2cnc3cc(F)c(-c4ccc(OCCCN5CCCCC5)nc4)cc3c21 + CN(C)c1ccc(Nc2c3ccc(NC(=O)CCN4CCCC4)cc3nc3cc(NC(=O)CCN4CCCC4)ccc23)cc1
viability, T/C (%): 98.1
//
COMPOUND: COc1ccc([C@@H](O)c2cc(-c3ncnc4cc(N5CCOCC5)ccc34)c(F)cc2Cl)nn1 + Cc1[nH]c2ccc(F)cc2c1-c1nc2c3cccnc3c3ncccc3c2[nH]1
viability, T/C (%): 96

**Q:** May I ask what viability, T/C has been recorded for COc1cccc2c1C(=O)c1c(O)c3c(c(O)c1C2=O)CC(O)(C(=O)CO)CC3OC1CC(N)C(O)C(C)O1 (centres undefined) + CN(C)c1ccc(Nc2c3ccc(NC(=O)CCN4CCCC4)cc3nc3cc(NC(=O)CCN4CCCC4)ccc23)cc1 ?
**A:** 82

**Q:** // repeat for C=CC(=O)N1CCN(c2nc(=O)n(-c3c(C)ccnc3C(C)C)c3nc(-c4c(O)cccc4F)c(F)cc23)C(C)C1 (centres undefined) + Cc1[nH]c2ccc(F)cc2c1-c1nc2c3cccnc3c3ncccc3c2[nH]1 and report
**A:** 95.5

**Q:** Same for C#Cc1c(F)ccc2cc(O)cc(-c3ncc4c(N5CC6CCC(C5)N6)nc(OCC56CCCN5CC(F)C6)nc4c3F)c12 (centres undefined) + Cc1cnc(CNC(=O)c2c(=O)c3ccc(N4CCCN(C)CC4)nc3n3c2sc2ccccc23)cn1
**A:** 36.9

**Q:** Then O=C(c1cc(Cc2n[nH]c(=O)c3ccccc23)ccc1F)N1CCN(C(=O)C2CC2)CC1 + Cc1cnc(CNC(=O)c2c(=O)c3ccc(N4CCCN(C)CC4)nc3n3c2sc2ccccc23)cn1 ?
**A:** 36.7

**Q:** Note, next up: C=CCn1c(=O)c2cnc(Nc3ccc(N4CCN(C)CC4)cc3)nc2n1-c1cccc(C(C)(C)O)n1 + Cc1[nH]c2ccc(F)cc2c1-c1nc2c3cccnc3c3ncccc3c2[nH]1
**A:** 45.1

**Q:** Then CCCS(=O)(=O)Nc1ccc(F)c(C(=O)c2c[nH]c3ncc(-c4ccc(Cl)cc4)cc23)c1F + Cc1[nH]c2ccc(F)cc2c1-c1nc2c3cccnc3c3ncccc3c2[nH]1 ?
**A:** 10

**Q:** Try the compound CC(=O)O[C@H]1C(=O)[C@@]2(C)[C@H]([C@H](OC(=O)c3ccccc3)[C@]3(O)C[C@H](OC(=O)[C@H](O)[C@@H](NC(=O)c4ccccc4)c4ccccc4)C(C)=C1C3(C)C)[C@]1(OC(C)=O)CO[C@@H]1C[C@@H]2O + Cc1[nH]c2ccc(F)cc2c1-c1nc2c3cccnc3c3ncccc3c2[nH]1
**A:** 16

###

test system: A375 multi-cell spheroids with HUVEC/MSC, viability; experiment: Anticancer human tumor A375 cell line growth inhibition [GQUAD]; conditions: curve of first compound; second compound 3.16 µM;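 note: spheroids exposed to compounds for seven days before readout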
REPORTED_ENDPOINT: IC50

COMPOUND: CC(C)n1c(=O)n(C)c2cnc3cc(F)c(-c4ccc(OCCCN5CCCCC5)nc4)cc3c21 + CN(C)c1ccc(Nc2c3ccc(NC(=O)CCN4CCCC4)cc3nc3cc(NC(=O)CCN4CCCC4)ccc23)cc1
EXPERIMENTAL_SYSTEM: A375 multi-cell spheroids with HUVEC/MSC, viability
IC50: > 10 µM

COMPOUND: Cc1cccc(N(C)C(=O)C2C(O)CCN2c2nc(C)cc(C(F)(F)F)c2C#N)c1 (stereo not drawn) + Cc1cnc(CNC(=O)c2c(=O)c3ccc(N4CCCN(C)CC4)nc3n3c2sc2ccccc23)cn1
EXPERIMENTAL_SYSTEM: A375 multi-cell spheroids with HUVEC/MSC, viability
IC50: < 0.0316 µM

**Q:** For O=c1[nH]cc(F)c(=O)[nH]1 + CN(C)c1ccc(Nc2c3ccc(NC(=O)CCN4CCCC4)cc3nc3cc(NC(=O)CCN4CCCC4)ccc23)cc1 , what is its reported IC50?
**A:** > 10 µM
